# Assay Method Text: Phase 1 multiple-dose study, plasma PK
# Type: in vivo, human
# Stated Conditions: both sexes, human, plasma, oral, plasma, steady state; read-out: half-life at steady state (converted)
Measured Parameter: half-life

Find the recorded half-life belonging to C[C@H]1CN2CCNCc3ccc(C(=O)NCC(F)F)c1c32 and report it.
~5 h

###

# Test system: plasma protein
# Assay Method Text: clinical
# Stated Conditions: human, oral, 18 mg, Day 11, Cohort 4B (18 mg BID)
Measured Parameter: fraction unbound at 11 day
Give the figure only, with no unit attached.

Please give the measured fraction unbound at 11 day for this compound: C[C@H]1CN2CCNCc3ccc(C(=O)NCC(F)F)c1c32
0.926

###

# Assay Method Text: Phase 1 multiple-dose study, plasma PK
# Format: in vivo, human
# Stated Conditions: both sexes, human, plasma, oral, 6 mg, Day 10; Cohort 1 (6 mg TID); read-out: Plasma T1/2, mean (SD) (converted)
Measured Parameter: half-life (h)
Give the value, in units of h, as a plain number.

For C[C@H]1CN2CCNCc3ccc(C(=O)NCC(F)F)c1c32 [Compound 1] , what is its reported half-life?
4.63

###

# Assay Method Text: Phase 1 multiple-dose study, plasma PK
# Format: in vivo, human
# Stated Conditions: both sexes, human, plasma, oral, 6 mg, Day 10; Cohort 1 (6 mg TID); read-out: Plasma Tmax, median (minimum, maximum)
Measured Parameter: Tmax (h)
Return type: number; implicit unit h.

Consider the molecule shown here: C[C@H]1CN2CCNCc3ccc(C(=O)NCC(F)F)c1c32 [Compound 1] What is its recorded Tmax?
1.03

###

# Assay Method Text: Phase 1 multiple-dose study, plasma PK
# Assay type: in vivo, human
# Stated Conditions: both sexes, human, plasma, oral, 12 mg, Day 10; Cohort 3 (12 mg BID); read-out: Plasma T1/2, mean (SD) (converted)
Measured Parameter: half-life (h)
// return numeric value only (unit: h, not printed)

Entry under review: C[C@H]1CN2CCNCc3ccc(C(=O)NCC(F)F)c1c32 [Compound 1] . Reported half-life?
3.54

###

# Assay Method Text: Phase 1 multiple-dose study, plasma PK
# Type: in vivo, human
# Stated Conditions: both sexes, human, plasma, oral, 12 mg, Day 8; Cohort 3 (12 mg BID); read-out: Plasma Cmax, geometric mean (geometric CV %)
Measured Parameter: Cmax (ng/mL)
Express it in ng/mL; write the number only.

Which Cmax value is on record for C[C@H]1CN2CCNCc3ccc(C(=O)NCC(F)F)c1c32 ?
30.3

###

# Assay Method Text: Phase 1 multiple-dose study, plasma PK
# Format: in vivo, human
# Stated Conditions: both sexes, human, plasma, oral, 6 mg, Day 9; Cohort 1 (6 mg TID); read-out: Plasma AUCtau, geometric mean (geometric CV %)
Measured Parameter: AUC (ng·h/mL)
Give the value in ng·h/mL but do not write ng·h/mL after it.

What value of AUC has been reported for the following molecule? C[C@H]1CN2CCNCc3ccc(C(=O)NCC(F)F)c1c32 [Compound 1]
84.9

###

# Assay Method Text: Phase 1 multiple-dose study, plasma PK
# Format: in vivo, human
# Stated Conditions: both sexes, human, plasma, oral, 6 mg, Day 8; Cohort 1 (6 mg TID); read-out: Plasma Cmax, geometric mean (geometric CV %)
Measured Parameter: Cmax (ng/mL)
Write down the numeric answer in ng/mL and omit the unit.

Given the compound C[C@H]1CN2CCNCc3ccc(C(=O)NCC(F)F)c1c32 , what is its reported Cmax?
16.6

###

# Assay Method Text: Phase 1 multiple-dose study, plasma PK
# Assay type: in vivo, human
# Stated Conditions: both sexes, human, plasma, oral, 6 mg, Day 8; Cohort 1 (6 mg TID); read-out: Plasma AUCtau, geometric mean (geometric CV %)
Measured Parameter: AUC
Write the numeric value and append its unit.

I have this compound here, C[C@H]1CN2CCNCc3ccc(C(=O)NCC(F)F)c1c32 [Compound 1] , and I need its recorded AUC.
0.0771 µg·h/mL

###

# Assay Method Text: Phase 1 multiple-dose study, plasma PK
# Assay type: in vivo, human
# Stated Conditions: both sexes, human, plasma, oral, 15 mg, Day 8; Cohort 4A (15 mg BID); read-out: Plasma T1/2, mean (SD) (converted)
Measured Parameter: half-life (h)
Report the figure in h without appending any unit label.

Find the recorded half-life belonging to C[C@H]1CN2CCNCc3ccc(C(=O)NCC(F)F)c1c32 and report it.
5.36

###

# Assay Method Text: Phase 1 multiple-dose study, plasma PK
# Type: in vivo, human
# Stated Conditions: both sexes, human, plasma, oral, 18 mg, Day 9; Cohort 4B (18 mg BID); read-out: Plasma T1/2, mean (SD) (converted)
Measured Parameter: half-life (h)
Kindly answer with a numeric value in h, unit omitted.

# get_value(readout='half-life', item= C[C@H]1CN2CCNCc3ccc(C(=O)NCC(F)F)c1c32 )
4.3

###

# Assay Method Text: Phase 1 multiple-dose study, plasma PK
# Format: in vivo, human
# Stated Conditions: both sexes, human, plasma, oral, 12 mg, Day 9; Cohort 2 (12 mg TID); read-out: Plasma T1/2, mean (SD) (converted)
# Protocol: Subjects were enrolled to 1 of 2 dosage regimens. Subject enrollment was stratified by sex to ensure approximate sex balance in each cohort. Morning doses were administered following a standard light breakfast (e.g., milk and cereal, toast, and fruit) on all days. TID dosing (three times a day) was approximately 8 hours apart. Subjects fasted from midnight onwards, until the morning breakfast each day. […]
Measured Parameter: half-life (h)
Numbers only here, please. The scale is h.

Requested read-out: half-life. Entry: C[C@H]1CN2CCNCc3ccc(C(=O)NCC(F)F)c1c32
4.79

###

# Assay Method Text: Phase 1 multiple-dose study, plasma PK
# Type: in vivo, human
# Stated Conditions: both sexes, human, plasma, oral, 15 mg, Day 10; Cohort 4A (15 mg BID); read-out: Plasma AUCtau, geometric mean (geometric CV %)
# Experimental: Subjects were enrolled to 1 of 2 dosage regimens. Subject enrollment was stratified by sex to ensure approximate sex balance in each cohort. Morning doses were administered following a standard light breakfast (e.g., milk and cereal, toast, and fruit) on all days. TID dosing (three times a day) was approximately 8 hours apart. Subjects fasted from midnight onwards, until the morning breakfast each day. […]
Measured Parameter: AUC (ng·h/mL)
The answer is to be given in ng·h/mL; state only the numeric part.

I am curious: what AUC value has been reported for C[C@H]1CN2CCNCc3ccc(C(=O)NCC(F)F)c1c32 ?
193

###

# Assay Method Text: Phase 1 multiple-dose study, plasma PK
# Type: in vivo, human
# Stated Conditions: both sexes, human, plasma, oral, 15 mg, Day 10; Cohort 4A (15 mg BID); read-out: Plasma Cmax, geometric mean (geometric CV %)
Measured Parameter: Cmax (ng/mL)
Give a bare numeral; the unit ng/mL is implied.

Entry C[C@H]1CN2CCNCc3ccc(C(=O)NCC(F)F)c1c32 has what Cmax?
40.9
